Listed next: entries and their corresponding IFN-γ(pg/ml) at 0.5µg/ml antibody.
Target: T1, human CD112R on antigen-specific CD8+ T cells (human, UniProt Q6DKI7 1-326)
T1 sequence (looked up): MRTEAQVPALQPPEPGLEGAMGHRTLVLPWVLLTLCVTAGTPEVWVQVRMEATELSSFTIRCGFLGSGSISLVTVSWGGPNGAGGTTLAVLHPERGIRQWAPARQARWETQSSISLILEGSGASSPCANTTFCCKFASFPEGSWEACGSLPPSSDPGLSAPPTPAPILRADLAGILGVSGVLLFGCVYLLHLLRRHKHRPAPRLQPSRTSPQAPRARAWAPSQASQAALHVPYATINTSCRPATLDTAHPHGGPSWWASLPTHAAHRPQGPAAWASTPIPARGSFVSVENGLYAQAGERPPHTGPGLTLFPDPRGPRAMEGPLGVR
Experiment: cell-based or functional assay
Your answer is read as pg/mL, so omit the unit and give the number.

C11 (antibody, human IgG1, kappa, V domains shown) VH: EVQLQQSGPELVKPGASVKISCKASGYTFTDYFMNWVRQSHGKSLEWIGDIHPNNGSPNYNQKFKGKATLTVGKSSSTAYMELRSLTSEDSAVYYCATGYFDVWGTGTTVTVSS VL: DIVMTQSPSSLSVSAGEKVTMSCKSSQSLLNSGNQKNYLAWYQQKPGQPPKLLIYGASTRESGVPDRFTGSGSGTDFTLTISSVQAEDLAVYYCQNDHSYPWTFGGGTKLEIKR	676

Please turn your attention to the following entry.
Query: Request the reported IFN-γ(pg/ml) at 0.5µg/ml antibody associated with C41 (antibody, human IgG1, kappa, V domains shown) VH: EVQLQQSGPELVKPGASVKISCKASGNTFTDYYINWVKQSHGKSLEWIGDIEPNNGGTNYNQKFKGKATLTVDKSSSTAYMELRSLTSEDSAIYYCATLYFDYWGQGTTLTVSS VL: DIVMTQSPSSLSVSAGEKVTMSCKSSQSLLNSGNQKNYLAWYQQKPGQPPKLLIYGASTRESGVPDRFTGSGSGTDFTLTISSVQAEDLAVYYCQNDHSYPFTFGSGTKLEIKR
Result: 573
